biological target: Y181C RT RNase H function (Human immunodeficiency virus type 1 group M subtype B, UniProt P04585, Y768C); construct: Amino acid substitutions were introduced into the p66 HIV-1 RT subunit coded in a p6HRT-prot plasmid; assay: RNase H activity of mutated RT Y181C
Endpoint: IC50 (µM)
Answers are plain numbers, in µM.

Briefly, IC50 measured for COc1cc(OC)cc(OC(=O)c2ccc(C(F)(F)F)nc2Nc2cc(Cl)ccc2C)c1 : 11.9

* * *

biological target: HIV-1 RT-associated RDDP activity (wt RT) (Human immunodeficiency virus type 1 group M subtype B); construct: RT is a heterodimeric (p66/p51) multifunctional enzyme; assay: biochemical
Endpoint: pIC50
Answers are plain numbers, as −log10 of the molar value.

pIC50 reported for this compound COc1cc(OC)cc(OC(=O)c2ccc(C(F)(F)F)nc2Nc2cc(Cl)ccc2C)c1 [Compound 21] : 4.79

* * *

molecular target: Q475A RT RDDP activity (Human immunodeficiency virus type 1 group M subtype B, UniProt P04585, Q1062A); construct: Amino acid substitutions were introduced into the p66 HIV-1 RT subunit coded in a p6HRT-prot plasmid; assay: biochemical
Endpoint: IC50
Give the number first and the unit second.

Item: COc1cc(OC)cc(OC(=O)c2ccc(C(F)(F)F)nc2Nc2cc(Cl)ccc2C)c1 | IC50: 17 µM

* * *

target: Y181C RT RDDP activity (Human immunodeficiency virus type 1 group M subtype B, UniProt P04585, Y768C); construct: Amino acid substitutions were introduced into the p66 HIV-1 RT subunit coded in a p6HRT-prot plasmid; assay: biochemical
Endpoint: IC50 (µM)
Give bare numbers, in µM.

For COc1cc(OC)cc(OC(=O)c2ccc(C(F)(F)F)nc2Nc2cc(Cl)ccc2C)c1 the compound record lists IC50 as 22.5

* * *

Endpoint: melting point

INSERT INTO results (chemical_smiles, val) VALUES
  ('Cc1ccc(Cl)cc1Nc1nc(C(F)(F)F)ccc1C(=O)Oc1ccccc1O', '179 to 180 °C'),
  ('Cc1ccc(Cl)cc1Nc1nc(C(F)(F)F)ccc1C(=O)NCc1ccc(Cl)cc1', '130 to 131 °C'),
  ('Cc1ccc(Cl)cc1Nc1nc(C(F)(F)F)ccc1C(=O)Oc1cccc(O)c1', '188 to 190 °C');

For each listed entry, give its melting point.
1. Cc1ccc(Cl)cc1Nc1nc(C(F)(F)F)ccc1C(=O)N1CCN(c2ccc(Cl)c(Cl)c2)CC1
2. CCOC(=O)CNC(=O)c1ccc(C(F)(F)F)nc1Nc1cc(Cl)ccc1C

["165 to 167 °C", "128 to 130 °C"]

* * *

biological target: V108A RT RDDP activity (Human immunodeficiency virus type 1 group M subtype B, UniProt P04585, V695A); construct: Amino acid substitutions were introduced into the p66 HIV-1 RT subunit coded in a p6HRT-prot plasmid; test: biochemical
Endpoint: pIC50
Give bare numbers, as −log10 of the molar value.

For this compound ( COc1cc(OC)cc(OC(=O)c2ccc(C(F)(F)F)nc2Nc2cc(Cl)ccc2C)c1 ), measured pIC50 is 4.08

* * *

experiment: Cytotoxicity in TZMbl cells; assay type: cell-based; conditions: human
Endpoint: CC50

Some compounds with known CC50 results, for comparison:
INSERT INTO measurements (compound, val) VALUES
  ('Cc1ccc(Cl)cc1Nc1nc(C(F)(F)F)ccc1C(=O)Nc1cccc(Cl)c1', '3.9 µM'),
  ('Cc1ccc(Cl)cc1Nc1nc(C(F)(F)F)ccc1C(=O)N1CCN(c2ccc(Cl)c(Cl)c2)CC1', '15.7 µM'),
  ('COc1ccc(OC(=O)c2ccc(C(F)(F)F)nc2Nc2cc(Cl)ccc2C)cc1', '> 50 µM'),
  ('Cc1ccc(Cl)cc1Nc1nc(C(F)(F)F)ccc1C(=O)Nc1cccnc1', '5.8 µM'),
  ('COc1cc(OC)cc(OC(=O)c2ccc(C(F)(F)F)nc2Nc2cc(Cl)ccc2C)c1', '> 50 µM');

Value sought for every listed compound: CC50.
1. Cc1ccc(Cl)cc1Nc1nc(C(F)(F)F)ccc1C(=O)NCc1ccc(F)cc1
2. Cc1ccc(Cl)cc1Nc1nc(C(F)(F)F)ccc1C(=O)Nc1ccc(C(F)(F)F)cc1
3. O=C1Nc2ccc(Cl)cc2[C@@](C#CC2CC2)(C(F)(F)F)O1 [EFV, efavirenz, reference compound]

1. 6 µM
2. 2.2 µM
3. > 50 µM

* * *

target: A502F RT RNase H function (Human immunodeficiency virus type 1 group M subtype B, UniProt P04585, A1089F); construct: Amino acid substitutions were introduced into the p66 HIV-1 RT subunit coded in a p6HRT-prot plasmid; made in house; host or cells: Escherichia coli strain M15; assay: RNase H activity of mutated RT A502F; assay type: biochemical, HIV-1
pIC50: −log10 of the molar value.
Endpoint: pIC50

The compound listed as COc1cc(OC)cc(OC(=O)c2ccc(C(F)(F)F)nc2Nc2cc(Cl)ccc2C)c1 shows pIC50 equal to < 4.00

* * *

biological target: HIV-1 RT-associated RNase H activity (wt RT) (Human immunodeficiency virus type 1 group M subtype B, UniProt P04585); construct: RT is a heterodimeric (p66/p51) multifunctional enzyme; assay: HIV-1 DNA polymerase-independent RNase H activity, wt RT; settings: RNase H IC50, wt RT
Please respond with reported pIC50 for every item in the list.
Numbers only, as −log10 of the molar value.

INSERT INTO measurements (chemical_smiles, val) VALUES
  ('Cc1cccc(NC(=O)c2ccc(C(F)(F)F)nc2Nc2cc(Cl)ccc2C)c1', 5.05);

Could I get pIC50 for every one of these entries?
1. CSc1ccc(NC(=O)c2ccc(C(F)(F)F)nc2Nc2cc(Cl)ccc2C)cc1
2. Cc1ccc(Cl)cc1Nc1nc(C(F)(F)F)ccc1C(=O)NCc1ccc(C(F)(F)F)cc1
3. Cc1ccc(Cl)cc1Nc1nc(C(F)(F)F)ccc1C(=O)Oc1ccc(Cl)cc1
4. COc1cc(NC(=O)c2ccc(C(F)(F)F)nc2Nc2cc(Cl)ccc2C)cc(OC)c1OC
5. Cc1ccc(Cl)cc1Nc1nc(C(F)(F)F)ccc1C(=O)Oc1ccccc1O
6. Cc1ccc(Cl)cc1Nc1nc(C(F)(F)F)ccc1C(=O)Oc1cccc(O)c1

1. 5.23
2. 4.66
3. 5.03
4. 4.71
5. 4.79
6. 4.58

Count: 5. Required value per item: pIC50.
1. Cc1ccc(Cl)cc1Nc1nc(C(F)(F)F)ccc1C(=O)Nc1ccc(C(F)(F)F)cc1
2. Cc1ccc(Cl)cc1Nc1nc(C(F)(F)F)ccc1C(=O)NCc1ccc(F)cc1
3. COc1cc(NC(=O)c2ccc(C(F)(F)F)nc2Nc2cc(Cl)ccc2C)cc(OC)c1
4. COc1ccc(OC(=O)c2ccc(C(F)(F)F)nc2Nc2cc(Cl)ccc2C)cc1OC
5. COc1cc(OC(=O)c2ccc(C(F)(F)F)nc2Nc2cc(Cl)ccc2C)cc(OC)c1OC

1. 5.11
2. 4.63
3. 4.76
4. 4.68
5. 4.76

Could I get pIC50 for every one of these entries?
1. Cc1ccc(Cl)cc1Nc1nc(C(F)(F)F)ccc1C(=O)Nc1cccnc1
2. Cc1ccc(Cl)cc1Nc1nc(C(F)(F)F)ccc1C(=O)N1CCN(c2ccc(Cl)c(Cl)c2)CC1

1. 4.60
2. 5.12

* * *

Could you please report measured CC50 for the items listed next?
test: Cytotoxicity in TZMbl cells; assay type: cell-based; conditions: human
One number for each entry, in µM.

Completed entries (count: 2):
INSERT INTO assay_data (compound, val) VALUES
  ('Cc1ccc(Cl)cc1Nc1nc(C(F)(F)F)ccc1C(=O)Oc1ccc(Cl)cc1 [Compound 13]', 36),
  ('COc1cc(NC(=O)c2ccc(C(F)(F)F)nc2Nc2cc(Cl)ccc2C)cc(OC)c1 [Compound 34]', 5.3);

Would you be so kind as to report CC50 for each listed record?
1. Cc1ccc(CNC(=O)c2ccc(C(F)(F)F)nc2Nc2cc(Cl)ccc2C)cc1 [Compound 44]
2. COc1ccccc1CNC(=O)c1ccc(C(F)(F)F)nc1Nc1cc(Cl)ccc1C [Compound 39]
3. Cc1ccc(Cl)cc1Nc1nc(C(F)(F)F)ccc1C(=O)NCc1ccc(Cl)cc1 [Compound 40]
4. Cc1ccc(Cl)cc1Nc1nc(C(F)(F)F)ccc1C(=O)NCc1ccc(Cl)c(Cl)c1 [Compound 46]

[1.1, 14.8, 4.7, 6.3]

* * *

biological target: HIV-1 RT-associated RNase H activity (wt RT) (Human immunodeficiency virus type 1 group M subtype B, UniProt P04585); construct: RT is a heterodimeric (p66/p51) multifunctional enzyme; test: HIV-1 DNA polymerase-independent RNase H activity, wt RT; settings: RNase H IC50, wt RT
pIC50: −log10 of the molar value.
Given measured pIC50, output label 1 if it is greater than or equal to 5 and label 0 if not.

Completed entries (count: 3):
INSERT INTO measurements (chemical_smiles, assigned_class) VALUES
  ('COc1cccc(NC(=O)c2ccc(C(F)(F)F)nc2Nc2cc(Cl)ccc2C)c1', 'label 0'),
  ('Cc1ccc(Cl)cc1Nc1nc(C(F)(F)F)ccc1C(=O)NCc1ccc(Cl)cc1', 'label 1'),
  ('COc1ccc(NC(=O)c2ccc(C(F)(F)F)nc2Nc2cc(Cl)ccc2C)cc1OC', 'label 0');

Test whether the compound CCOC(=O)CNC(=O)c1ccc(C(F)(F)F)nc1Nc1cc(Cl)ccc1C records pIC50 of 5 or higher.
label 0

Please indicate if the recorded pIC50 for Cc1ccc(Cl)cc1Nc1nc(C(F)(F)F)ccc1C(=O)Oc1ccc(O)cc1 meets or exceeds 5.
label 0

Decide: is the reported value of pIC50 for COc1cc(CNC(=O)c2ccc(C(F)(F)F)nc2Nc2cc(Cl)ccc2C)ccc1O equal to or greater than 5?
label 0

Can Cc1ccc(Cl)cc1Nc1nc(C(F)(F)F)ccc1C(=O)NO be said to have pIC50 at or above 5?
label 1

Data origin, for the record: paper PMC7144554
